# Study System: p70S6K (T412E mutant) (Homo sapiens (Human), UniProt P23443, T412E)
# Sequence (P23443 whole entry T412E): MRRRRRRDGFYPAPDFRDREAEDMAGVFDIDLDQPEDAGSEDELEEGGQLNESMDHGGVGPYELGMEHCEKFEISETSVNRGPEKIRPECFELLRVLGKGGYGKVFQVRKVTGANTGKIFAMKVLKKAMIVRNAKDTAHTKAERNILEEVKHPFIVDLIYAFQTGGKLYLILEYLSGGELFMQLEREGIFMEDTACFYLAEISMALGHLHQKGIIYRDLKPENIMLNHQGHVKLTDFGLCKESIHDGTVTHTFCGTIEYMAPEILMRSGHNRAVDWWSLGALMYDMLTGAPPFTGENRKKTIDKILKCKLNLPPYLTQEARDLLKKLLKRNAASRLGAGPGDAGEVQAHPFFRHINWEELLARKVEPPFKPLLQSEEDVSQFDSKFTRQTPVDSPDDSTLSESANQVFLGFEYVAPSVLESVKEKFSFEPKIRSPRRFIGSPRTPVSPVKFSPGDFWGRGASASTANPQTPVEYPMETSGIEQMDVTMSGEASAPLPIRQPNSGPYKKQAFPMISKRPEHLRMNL
# Experimental Details: p70S6K enzyme assay
# Type: biochemical
# Test Context: 24 μM ATP, 90 min at 25° C., Caliper mobility shift
# Description: p70S6K inhibitor compounds were diluted and plated in 96 well plates. […] The proportion of substrate and product (phosphorylated) peptide was analyzed on a Caliper Life Sciences Lab Chip 3000, using a pressure of −1.4 psi, and upstream and downstream voltages of −3000 and −700, respectively. […] To assess the inhibitory potential of the compounds, IC50 values were determined, as shown above.
Catalogue of IC50 readings, one per entry.

Here is how some molecules turned out for IC50.
Compound	Experimental Endpoint	Reported Result
CC(C)NC[C@@H](Nc1ncnc2c(C(N)=O)ccnc12)c1ccc(F)c(C(F)(F)F)c1	IC50	25 to 100 nM
CNC[C@@H](Nc1ncnc2c(C(N)=O)ccnc12)c1ccc(C(F)(F)F)c(F)c1	IC50	< 25 nM

Value lookup for IC50; key = NC(=O)c1ccnc2c(N[C@H](CN3CCC3)c3ccc(Cl)cc3)ncnc12 < 25 nM

I'd like to know its IC50. The molecule in question is NC(=O)c1cccc2c(NCc3ccc(C(F)(F)F)cc3)nnnc12 25 to 100 nM

Entry NC(=O)c1cccc2c(N[C@H](CN3CCC3)c3ccc(Cl)c(C(F)(F)F)c3)nnnc12 : reported IC50 = ? < 25 nM

What value of measured IC50 is listed for CCNC[C@@H](Nc1ncnc2c(C(N)=O)ccnc12)c1ccc(C(F)(F)F)c(C(F)(F)F)c1 ? < 25 nM

Quick check: IC50 of NC(=O)c1cccc2c(NCc3cccc(F)c3)nnnc12 ? 501 to 1000 nM

GET /values?readout=IC50&item= COc1cc([C@@H](CN(C)C)Nc2nnnc3c(C(N)=O)cccc23)ccc1Cl 25 to 100 nM
